I'd be grateful if you could share measured pIC50 for these entries.
# Test system: SIRPα signalling induced by Raji cells
# assay-summary: Assay B: SIRPα signalling assay using Raji cells
# Assay type: cell-based, human
# experimental-parameters: Homo sapiens, compounds of the invention, Table 4, read-out: Inhibition of SIRα signalling induced by Raji cells: IC50
Answers are plain numbers, as −log10 of the molar value.

Below are worked cases with known answers.
1) COCCOc1ncc(-c2cccc(C#N)c2N2CCC(c3nncn3C)CC2)cn1 [compound 3, reference compound] : 6.20
2) Cn1cnnc1C1CCN(c2c(C#N)cccc2-c2cncc(F)c2)CC1 : 5.93
3) Cn1cnnc1C1CCN(c2c(C#N)cccc2-c2ccnnc2)CC1 : 6.80
4) Cn1cnnc1C1CCN(c2c(C#N)cccc2-c2cncc(CO)c2)CC1 : 6.51
5) Cn1cnnc1C1(F)CCN(c2c(C#N)cccc2-c2cnc(F)cc2Cl)CC1 : 7.15

Below is a list of molecules. For each, state its recorded pIC50.
1. Cc1cc(F)ncc1-c1cccc(C#N)c1N1CCC(F)(c2nncn2C)CC1
2. Cn1cnnc1C1CCN(c2c(C#N)cccc2-c2cnsc2)CC1
3. Cn1cnnc1C1CCN(c2c(C#N)cccc2-c2cnc3nn(C(C)(C)C)cc3c2)CC1
4. Cn1cnnc1C1CCN(c2c(C#N)cccc2-c2cncc(OC(F)F)c2)CC1 [compound 23, reference compound]
5. Cn1cnnc1C1CCN(c2c(C#N)cccc2-c2cnc(F)c(OC(F)F)c2)CC1
6. COc1cc(F)ncc1-c1cccc(C#N)c1N1CCC(c2nncn2C)CC1
7. COc1cncc(-c2cccc(C#N)c2N2CCC(c3nncn3C)CC2)c1

// result
1. 6.99
2. 6.15
3. 7.68
4. 5.97
5. 6.49
6. 6.96
7. 6.20

Below is a list of molecules. For each, state its recorded pIC50.
1. Cc1cc(-c2cccc(C#N)c2N2CCC(c3nncn3C)CC2)cnc1F
2. Cn1cnnc1C1CCN(c2c(C#N)cccc2-c2ccc(Cl)nc2)CC1
3. Cn1cnnc1C1(F)CCN(c2c(C#N)cccc2-c2cnc3nn(CC(F)F)cc3c2)CC1

// result
[7.03, 5.64, 7.77]

These measurements were taken from patent US20240246981A1.
